Exercise: for every item that follows, state its recorded Binding affinity cyno TfR1 d 0.
Target: T1, cynomolgus monkey transferrin receptor 1 (cTfR1) (cynomolgus monkey (Macaca fascicularis), UniProt Q5RDH6 89-760 (Pongo abelii entry), limits assumed)
T1 construct: Recombinant cynomolgus TfR1; also called cyTfR1; cyno TfR1
T1 chain: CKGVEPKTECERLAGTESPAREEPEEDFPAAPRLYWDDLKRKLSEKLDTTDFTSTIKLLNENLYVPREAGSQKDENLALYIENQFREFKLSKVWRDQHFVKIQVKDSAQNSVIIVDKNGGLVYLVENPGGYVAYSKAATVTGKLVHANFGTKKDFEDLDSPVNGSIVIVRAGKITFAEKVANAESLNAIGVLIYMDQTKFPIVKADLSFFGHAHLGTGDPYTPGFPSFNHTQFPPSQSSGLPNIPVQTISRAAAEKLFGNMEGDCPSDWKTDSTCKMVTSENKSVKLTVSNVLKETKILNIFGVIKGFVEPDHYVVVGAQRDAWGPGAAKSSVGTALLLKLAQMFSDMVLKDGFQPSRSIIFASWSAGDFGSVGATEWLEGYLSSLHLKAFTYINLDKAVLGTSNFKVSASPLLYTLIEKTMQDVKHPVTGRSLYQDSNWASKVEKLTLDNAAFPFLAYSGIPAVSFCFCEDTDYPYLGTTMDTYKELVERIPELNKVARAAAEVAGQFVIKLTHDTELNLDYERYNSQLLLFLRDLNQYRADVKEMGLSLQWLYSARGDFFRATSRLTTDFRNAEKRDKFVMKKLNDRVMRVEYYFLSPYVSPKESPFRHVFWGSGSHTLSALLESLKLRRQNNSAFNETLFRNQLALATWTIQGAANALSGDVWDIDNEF
Assay: ELISA, cyno TfR1, Fab, day 0 of thermal stability test
Could you give me the number in nM? Just the number is fine.

Give reported Binding affinity cyno TfR1 d 0 value for humanized anti-TfR Fab 3M12 VH4/Vk2 (Fab, V domains shown) VH: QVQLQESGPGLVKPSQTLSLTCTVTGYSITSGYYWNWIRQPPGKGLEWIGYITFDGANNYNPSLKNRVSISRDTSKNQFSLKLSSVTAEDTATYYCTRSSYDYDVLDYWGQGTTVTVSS VL: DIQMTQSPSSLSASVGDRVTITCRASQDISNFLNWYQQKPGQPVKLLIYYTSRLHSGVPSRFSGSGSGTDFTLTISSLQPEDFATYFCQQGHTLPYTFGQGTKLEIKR 1.4

Give reported Binding affinity cyno TfR1 d 0 value for humanized anti-TfR Fab 5H12 VH5 (C33Y)/Vk4 (Fab, V domains shown, also called 5H12 (VH4-C33Y/Vk4)) VH: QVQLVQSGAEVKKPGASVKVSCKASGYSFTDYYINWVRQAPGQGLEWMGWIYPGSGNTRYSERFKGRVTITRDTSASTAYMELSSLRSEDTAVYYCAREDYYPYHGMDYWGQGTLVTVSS VL: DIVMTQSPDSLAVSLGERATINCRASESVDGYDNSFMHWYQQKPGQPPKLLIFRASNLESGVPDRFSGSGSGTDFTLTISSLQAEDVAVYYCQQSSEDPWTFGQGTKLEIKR 3.3

Give reported Binding affinity cyno TfR1 d 0 value for humanized anti-TfR Fab 3A4 VH3 (N54S)/Vk4 (Fab, V domains shown) VH: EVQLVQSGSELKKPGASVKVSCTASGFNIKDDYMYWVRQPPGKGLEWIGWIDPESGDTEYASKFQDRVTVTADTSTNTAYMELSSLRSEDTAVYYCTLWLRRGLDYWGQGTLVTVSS VL: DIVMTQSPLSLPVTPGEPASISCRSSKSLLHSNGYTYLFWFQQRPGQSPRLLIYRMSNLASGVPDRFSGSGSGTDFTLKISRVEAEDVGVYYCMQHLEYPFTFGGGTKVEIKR 398

Give reported Binding affinity cyno TfR1 d 0 value for humanized anti-TfR Fab 5H12 VH5 (C33Y)/Vk3 (Fab, V domains shown) VH: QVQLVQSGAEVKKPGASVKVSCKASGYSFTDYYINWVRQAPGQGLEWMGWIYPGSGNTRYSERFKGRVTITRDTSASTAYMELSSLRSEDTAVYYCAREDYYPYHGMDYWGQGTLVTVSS VL: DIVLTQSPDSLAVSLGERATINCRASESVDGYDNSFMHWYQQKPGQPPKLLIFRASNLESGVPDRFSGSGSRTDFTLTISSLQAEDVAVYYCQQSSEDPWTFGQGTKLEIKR 2.1
